# SYSTEM_UNDER_TEST: human CB1 receptor (Homo sapiens)
# Sequence (P21554 whole entry): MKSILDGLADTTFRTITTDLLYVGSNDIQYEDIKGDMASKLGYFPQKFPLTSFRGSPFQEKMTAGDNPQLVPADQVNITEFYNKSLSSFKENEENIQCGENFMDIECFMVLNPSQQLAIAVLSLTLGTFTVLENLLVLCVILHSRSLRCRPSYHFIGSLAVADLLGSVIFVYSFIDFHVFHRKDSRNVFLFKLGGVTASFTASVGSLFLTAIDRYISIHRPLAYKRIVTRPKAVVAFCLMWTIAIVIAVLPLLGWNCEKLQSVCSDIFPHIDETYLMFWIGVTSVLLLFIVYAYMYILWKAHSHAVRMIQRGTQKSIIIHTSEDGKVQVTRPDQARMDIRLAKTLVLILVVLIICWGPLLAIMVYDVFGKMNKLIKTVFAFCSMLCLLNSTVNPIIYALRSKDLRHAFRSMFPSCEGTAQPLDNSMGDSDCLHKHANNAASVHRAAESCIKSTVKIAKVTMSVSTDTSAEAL
# PROTOCOL_DETAILS: [35S] GTPγS binding on membranes of CHO cells expressing the human CB1 receptor (agonism)
# Assay type: biochemical
# Parameters: expressed in transfected cells; membrane preparation
# CONDITION_INFO: human CB1, CHO cell membranes, read-out: GTPγS EC50
ENDPOINT_LABEL: pEC50
Please keep in mind that pEC50 is minus log10 of the molar concentration; only the number is needed.

For orientation, consider the following solved cases.
CC(C)(C)[C@H](NC(=O)c1nn(Cc2ccc(F)cc2)c2ccccc12)C(=O)NCc1cnn(-c2ccccc2)n1 [Example 427] | 7.30
CC(C)(C)[C@H](NC(=O)c1nn(Cc2ccc(F)cc2)c2ccccc12)C(=O)NCC(=O)Nc1nncs1 [Example 519] | 8.24

Exercise: For the molecule CC(C)(C)[C@H](NC(=O)c1nn(Cc2ccc(F)cc2)c2ccccc12)C(=O)NCCc1nc2ccccc2c(=O)[nH]1 [Example 501] , what pEC50 is on record?
Key: 7.77

----------
# SYSTEM_UNDER_TEST: UniProt P21554
# PROTOCOL_DETAILS: Human CB1 receptor binding, [3H] CP-55,940 displacement on HEK cell membranes
# Parameters: expressed in transfected cells; host or cells: HEK cells, doxycycline-induced; membrane preparation
# CONDITION_INFO: CB1 Ki
pKi: −log10 of the molar value.
ENDPOINT_LABEL: pKi

CC(C)(C)[C@H](NC(=O)c1nn(Cc2ccc(C(F)(F)F)cc2)c2ccccc12)C(=O)NC[C@@H](O)CO [Example 260] | < 6.40
CC(C)(C)[C@H](NC(=O)c1nn(Cc2cccc3ccccc23)c2ccccc12)C(N)=O [Example 272] | < 6.40

Exercise: What measured pKi goes with CC(C)(C)[C@H](NC(=O)c1nn(Cc2cccc3ccccc23)c2ccccc12)C(=O)NCCO [Example 274] ?
Key: < 6.40

----------
# SYSTEM_UNDER_TEST: human CB1 receptor (Homo sapiens)
# PROTOCOL_DETAILS: Human CB1 receptor binding, [3H] CP-55,940 displacement on HEK cell membranes
# Parameters: expressed in transfected cells; host or cells: HEK cells, doxycycline-induced; membrane preparation
# CONDITION_INFO: CB1 Ki
ENDPOINT_LABEL: pKi
Units for pKi: none; it is -log10 of a concentration expressed in mol/L.

CC(C)(C)[C@H](NC(=O)c1nn(Cc2ccc(F)cc2)c2ccccc12)C(=O)NC1CCOC1 (stereo partly shown) | 8.32
CC(C)(C)[C@H](NC(=O)c1nn(Cc2ccc(F)cc2)c2ccccc12)C(=O)N[C@H]1CCC[C@H]1O | 6.75
CC(C)(C)[C@H](NC(=O)c1nn(Cc2ccc(C(F)(F)F)cc2)c2ccccc12)C(=O)NCCS(N)(=O)=O | 6.65
CC(C)(C)[C@H](NC(=O)c1nn(Cc2ccccn2)c2ccccc12)C(N)=O | 7.90
CC(C)(C)C(NC(=O)c1nn(Cc2ccc(F)cc2)c2c(Cl)cccc12)C(N)=O (stereo not shown) | 10.00

Exercise: Record request: pKi value, item CC(C)(C)[C@H](NC(=O)c1nn(Cc2ccc(C#N)cc2)c2c(F)cccc12)C(=O)N1CC(C(N)=O)C1
Key: 8.38

Exercise: Also, CC(C)(C)[C@H](NC(=O)c1nn(Cc2ccc(C#N)cc2F)c2c(F)c(F)ccc12)C(=O)NC[C@H](O)CO please.
Key: 7.38
